Species: Rattus norvegicus
Assay: Concentration required to block 50% chloride conductance in rat extensor digitorum longus(EDL) muscle fibers
Type: functional, organism-based
Could you please report measured pIC50 for the items listed next?
One number for each entry, as −log10 of the molar value.

As a guide, the following entries are already answered.
molecule | numeric-value
CC(Oc1ccc(Cl)cc1)C(=O)O (racemic) | 4.09
CC[C@H](Oc1ccc(Cl)cc1)C(=O)O | 4.99
C[C@H](Oc1ccc(Cl)cc1)C(=O)O | 4.92

Attention now shifts to the item below.
pIC50 reported for this molecule CCC(Oc1ccc(Cl)cc1)C(=O)O (racemic) : 4.36
